- systemName: Potassium voltage-gated channel subfamily A member 3 (Homo sapiens)
- Sequence (P22001 whole entry): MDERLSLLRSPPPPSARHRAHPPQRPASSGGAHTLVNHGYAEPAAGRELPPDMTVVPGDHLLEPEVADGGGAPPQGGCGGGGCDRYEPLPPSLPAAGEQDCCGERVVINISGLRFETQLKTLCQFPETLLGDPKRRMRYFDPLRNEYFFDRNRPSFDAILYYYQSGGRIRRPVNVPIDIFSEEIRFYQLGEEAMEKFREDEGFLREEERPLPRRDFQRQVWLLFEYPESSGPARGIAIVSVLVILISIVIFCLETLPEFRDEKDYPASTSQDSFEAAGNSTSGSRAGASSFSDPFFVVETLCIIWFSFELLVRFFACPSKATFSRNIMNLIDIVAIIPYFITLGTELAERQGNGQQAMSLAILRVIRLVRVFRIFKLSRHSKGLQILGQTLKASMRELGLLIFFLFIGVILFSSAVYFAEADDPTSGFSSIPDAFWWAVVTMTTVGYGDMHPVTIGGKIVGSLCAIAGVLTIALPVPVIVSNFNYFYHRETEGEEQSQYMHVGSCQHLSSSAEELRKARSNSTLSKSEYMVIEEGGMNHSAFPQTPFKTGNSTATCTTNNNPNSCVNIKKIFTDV
- testProtocol: Inhibition of voltage-gated potassium channel subunit Kv1.3 in chinese hamster ovary cells
- Assay type: functional, cell-based
measureName: IC50 (nM)

P: CC(=O)O[C@H]1C2[C@@](C)(CCC3C(O)(CCc4ccccc4C(F)(F)F)C(C)=C[C@@H](OC(C)=O)[C@@]32C)C2C=CCOC[C@]2([C@@H](C)OC(C)=O)[C@H]1OC(C)=O (stereo partly drawn)
Q: C=CCC1(O)C(C)=C[C@@H](OC(C)=O)[C@@]2(C)C1CC[C@]1(C)C2[C@H](OC(C)=O)[C@H](OC(C)=O)[C@@]2([C@@H](C)OC(C)=O)COCC=CC12 (stereo partly drawn)
## Input Smaller IC50 value? Options are P and Q I would appreciate it if you answered with the label of your choice.
## Output P
(P: 87 nM, Q: 143 nM)

---

- systemName: Potassium voltage-gated channel subfamily A member 3 (Homo sapiens)
- testProtocol: Inhibition of voltage-gated potassium channel subunit Kv1.3 in chinese hamster ovary cells
- Format: functional, cell-based
measureName: IC50 (nM)

Illustrative cases are given below, each with its answer.
CCc1ccccc1[C@H](C)CC1(O)C(C)=C[C@@H](OC(C)=O)[C@@]2(C)C1CC[C@]1(C)C2[C@H](OC(C)=O)[C@H](OC(C)=O)[C@@]2([C@@H](C)OC(C)=O)COCC=CC12 (stereo partly specified) : 28
COc1ccccc1[C@H](C)C[C@]1(O)C(C)=C[C@@H](OC(C)=O)[C@]2(C)C3[C@H](OC(C)=O)[C@H](OC(C)=O)[C@@]4([C@@H](C)OC(C)=O)COCC=CC4[C@]3(C)CCC21 (stereo partly specified) : 19
C=C(CC1(O)C(C)=C[C@@H](OC(C)=O)[C@@]2(C)C1CC[C@]1(C)C2[C@H](OC(C)=O)[C@H](OC(C)=O)[C@@]2([C@@H](C)OC(C)=O)COCC=CC12)c1ccccc1CC (stereo partly specified) : 44
CC(=O)O[C@H]1C2[C@@](C)(CCC3C(O)(CCC=C(C)C)C(C)=C[C@@H](OC(C)=O)[C@@]32C)C2C=CCOC[C@]2([C@@H](C)OC(C)=O)[C@H]1OC(C)=O (stereo partly specified) : 21

A: CC(=O)O[C@H]1C2[C@@](C)(CCC3C(O)(Cc4ccccc4)C(C)=C[C@@H](OC(C)=O)[C@@]32C)C2C=CCOC[C@]2([C@@H](C)OC(C)=O)[C@H]1OC(C)=O (stereo partly specified)
B: CC(=O)O[C@H]1C2[C@@](C)(CCC3C(O)(C(C)Cc4ccccc4)C(C)=C[C@@H](OC(C)=O)[C@@]32C)C2C=CCOC[C@]2([C@@H](C)OC(C)=O)[C@H]1OC(C)=O (stereo partly specified)
C: CC(=O)O[C@H]1C2[C@@](C)(CCC3C(O)(CCc4ccccc4)C(C)=C[C@@H](OC(C)=O)[C@@]32C)C2C=CCOC[C@]2([C@@H](C)OC(C)=O)[C@H]1OC(C)=O (stereo partly specified)
## Input Please give the order of these compounds when sorted by IC50, largest value leading. Please reply with the labels ordered as requested. Many thanks.
## Output A, B, C
(A: 380 nM, B: 200 nM, C: 26 nM)

I: C=CC1(O)C(C)=C[C@@H](OC(C)=O)[C@@]2(C)C1CC[C@]1(C)C2[C@H](OC(C)=O)[C@H](OC(C)=O)[C@@]2([C@@H](C)OC(C)=O)COCC=CC12 (stereo partly specified)
II: C=CCCC1(O)C(C)=C[C@@H](OC(C)=O)[C@@]2(C)C1CC[C@]1(C)C2[C@H](OC(C)=O)[C@H](OC(C)=O)[C@@]2([C@@H](C)OC(C)=O)COCC=CC12 (stereo partly specified)
III: C=C(C[C@]1(O)C(C)=C[C@@H](OC(C)=O)[C@]2(C)C3[C@H](OC(C)=O)[C@H](OC(C)=O)[C@@]4([C@@H](C)OC(C)=O)COCC=CC4[C@]3(C)CCC21)c1ccccc1 (stereo partly specified)
## Input Number of compounds to sort: 3. Sort criterion: IC50, ascending. Please reply with the labels ordered as requested. Many thanks.
## Output III, II, I
(III: 19 nM, II: 664 nM, I: 1810 nM)
